The values you see were collected from ChEMBL document CHEMBL1140647.

- Assayed System: Beta-1 adrenergic receptor (Homo sapiens)
- Sequence (P08588 whole entry): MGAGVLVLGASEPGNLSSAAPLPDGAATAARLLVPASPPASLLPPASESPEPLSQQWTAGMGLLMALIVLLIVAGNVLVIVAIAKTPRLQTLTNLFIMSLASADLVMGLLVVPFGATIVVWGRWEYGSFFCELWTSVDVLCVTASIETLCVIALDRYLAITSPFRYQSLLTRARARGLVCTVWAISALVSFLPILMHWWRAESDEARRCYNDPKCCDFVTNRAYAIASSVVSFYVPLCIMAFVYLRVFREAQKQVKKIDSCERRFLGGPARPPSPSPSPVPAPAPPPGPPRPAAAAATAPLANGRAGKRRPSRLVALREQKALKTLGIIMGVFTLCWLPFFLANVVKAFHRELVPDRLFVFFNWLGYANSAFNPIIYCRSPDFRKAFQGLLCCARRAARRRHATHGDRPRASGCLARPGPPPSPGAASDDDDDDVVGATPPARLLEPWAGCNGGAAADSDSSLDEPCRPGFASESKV
- Experimental Details: Agonist activity at human beta-1 adrenergic receptor expressed in CHO cells assessed as cAMP accumulation
The class of a record is decided solely by its measured EC50; consult lower level: < 30 nM; middle level: ≥ 30 nM and < 200 nM; upper level: ≥ 200 nM

>>> class_label("O=C(O)c1ccsc1-c1cccc(NCCNC[C@H](O)c2cccc(Cl)c2)c1")
"upper level"

Input line: Record "C[C@H](CNc1ccc(-c2nc(C(=O)O)cs2)cc1)NC[C@H](O)c1cccc(Cl)c1" — which class?
Output line: lower level

Input line: Then this compound: "C[C@H](CNc1cccc(-c2ocnc2C(=O)O)c1)NC[C@H](O)c1cccc(Cl)c1"
Output line: upper level

Input line: Then this compound: "O=C(O)c1ccoc1-c1cccc(NCCNC[C@H](O)c2cccc(Cl)c2)c1"
Output line: upper level

Input line: Then this compound: "C[C@H](CNc1cccc(-c2sccc2C(=O)O)c1)NC[C@H](O)c1cccc(Cl)c1"
Output line: upper level

Input line: Then this compound: "C[C@H](CNc1cccc(-c2nc(C(=O)O)cs2)c1)NC[C@H](O)c1cccc(Cl)c1"
Output line: middle level

Input line: Then this compound: "C[C@H](CNc1cccc(-c2nc(C(=O)O)co2)c1)NC[C@H](O)c1cccc(Cl)c1"
Output line: middle level

Input line: Then this compound: "C[C@H](CNc1cccc(-c2occc2C(=O)O)c1)NC[C@H](O)c1cccc(Cl)c1"
Output line: middle level

Input line: Then this compound: "C[C@H](CNc1ccc(-c2csc(C(=O)O)n2)cc1)NC[C@H](O)c1cccc(Cl)c1"
Output line: lower level

Input line: Then this compound: "C[C@H](CNc1ccc(-c2sccc2C(=O)O)cc1)NC[C@H](O)c1cccc(Cl)c1"
Output line: middle level

Input line: Then this compound: "C[C@H](CNc1ccc(-c2occc2C(=O)O)cc1)NC[C@H](O)c1cccc(Cl)c1"
Output line: lower level

Input line: Then this compound: "C[C@H](CNc1ccc(-c2ocnc2C(=O)O)cc1)NC[C@H](O)c1cccc(Cl)c1"
Output line: lower level

Input line: Then this compound: "C[C@H](CNc1cccc(-c2csc(C(=O)O)n2)c1)NC[C@H](O)c1cccc(Cl)c1"
Output line: middle level

Input line: Then this compound: "C[C@H](CNc1ccc(-c2nc(C(=O)O)co2)cc1)NC[C@H](O)c1cccc(Cl)c1"
Output line: lower level
